B1: SNX8 (parent)
chain: RMVPALPPKRMLGADREFIEARRR

Variants of: B1
Experiment: protein stability index of a GFP-peptide fusion (GPS, HEK-293T) (PSI 1-6); higher = more stable;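 further: lentivirally expressed fusions sorted by FACS into six bins by GFP to DsRed ratio, PSI derived from sequencing read proportions per bin multiplied by bin number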
Conditions: c terminus: a fixed tail appended
Reported protein stability index values are given for each entry in this list.
A bare number is all that is needed in reply.

L6W = 3.15
L12C = 3.91
F18N = 4.45
K9N = 4.26

Request: Name the reported protein stability index value associated with the variant "M11D"
Result: 4.62

Request: "F18H" , same question.
Result: 4.18

Source: the supplement of paper PMC10567573
